- measuredTarget: active p38 alpha enzyme (Upstate Biotechnology) (Homo sapiens)
- Construct: purchased Upstate Biotechnology
- Sequence (Q16539 whole entry): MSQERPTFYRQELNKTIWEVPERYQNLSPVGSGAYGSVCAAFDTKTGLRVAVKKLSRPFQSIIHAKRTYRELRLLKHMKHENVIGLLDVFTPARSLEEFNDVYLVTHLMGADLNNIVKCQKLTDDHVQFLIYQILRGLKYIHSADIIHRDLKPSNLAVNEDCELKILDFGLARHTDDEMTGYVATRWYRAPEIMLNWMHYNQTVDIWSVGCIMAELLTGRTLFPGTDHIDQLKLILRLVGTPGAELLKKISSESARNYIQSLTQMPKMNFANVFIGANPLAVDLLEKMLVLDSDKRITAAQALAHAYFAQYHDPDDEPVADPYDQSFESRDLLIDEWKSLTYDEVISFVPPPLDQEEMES
- assayExplanation: p38α biochemical assay (ATP turnover, luminescent detection, Cambrex PKlight)
- particulars: p38α biochemical assay, Table 1 Biological Activity
- Experimental: The p38α biochemical assay employed is based on measurement of total ATP turnover following enzyme incubation with substrate in the presence of ATP with the use of a luminescent detection reagent (Cambrex PKlight). […] The final volume was 7.5005 μL as prepared prepared from the addition of 5 ul of kinase reaction (p38 alpah+MapkapK2+ATP) with 0.0005 μL compound dissolved in DMSO, and 2.5 ul of the detection reagent. […] Assay is read using a Perkin Elmer Viewlux.
pIC50: −log10 of the molar value.
recordedMetric: pIC50

Recorded pIC50, per entry:
CCc1ccc(C(=O)NCc2onc(-c3ccc(F)cc3)c2-c2nc(C(=O)NC(C)C)cs2)cc1 [Example 615]; < 6.00
CC(=O)N1CCN(Cc2nc(-c3ccc(F)cc3)c(-c3nc(C(=O)NC(C)C)cs3)o2)CC1 [Example 335]; ≥ 6.00
Cc1cc(C)cc(C(=O)N2CCN(Cc3nc(-c4ccc(F)cc4)c(-c4nc(C(=O)NC(C)C)cs4)o3)CC2)c1 [Example 375]; < 6.00

Here is another compound to look at.
Request: Complete the entry with pIC50 for CNC(=O)c1csc(-c2sc(C)nc2-c2ccc(F)cc2)n1 [Example 47]
Response: ≥ 6.00
